Answer each item with its documented MIC Staphylococcus haemolyticus (GC 4546).
Test system: Staphylococcus sp.
Experiment: in vitro antibacterial evaluation, MIC by broth dilution
Format: cell-based
Conditions: broth dilution, 18 hours at 35° C.
Excerpt: Methods for in vitro Antibacterial Evaluation (Table 1) […]
Square brackets hold non-standard residues; d marks the D form. Peptide text beside a SMILES is read from it. * marks the point of attachment. ξ: configuration not given here. ξEnduracididine(βξ-OH,4'ξ) = N=C1NCC(C(O)C(N)C(=O)O)N1; X2 = OCC1OC(OC2C(CO)OC(*)C(O)C2O)C(O)C(O)C1O

INSERT INTO results (compound, target_system, reading) VALUES
  ('CC(c1ccccc1)C1NC(=O)CNC(=O)C(CO)NC(=O)C(CC2CNC(=N)N2C2OC(CO)C(O)C(O)C2O)NC(=O)C(CC2CNC(=N)N2)NC(=O)C(Cc2ccc(OC3OC(CO)C(OC4OC(CO)C(O)C(O)C4OCc4ccc(OCc5ccccc5)cc4)C(O)C3O)cc2)NC1=O (centres unmarked) [Example 246c]', 'Staphylococcus sp.', '>128 µg/mL'),
  ('N=C1NCC(C(O)C2NC(=O)C(Cc3ccc(OC4OC(CO)C(OC5OC(CO)C(O)C(O)C5O)C(O)C4O)cc3)NC(=O)C(Cc3ccccc3)NC(=O)CNC(=O)C(CO)NC(=O)C(C(O)C3CNC(=N)N3)NC2=O)N1 (stereo not drawn) [Example 296] (cyclo(GFY(X2)[ξEnduracididine(βξ-OH,4''ξ)][ξEnduracididine(βξ-OH,4''ξ)]S); configuration not given here)', 'Staphylococcus sp.', '>128 µg/mL'),
  ('CC(c1ccccc1)C1NC(=O)CNC(=O)C(CO)NC(=O)C(C(O)C2CN(c3ncccn3)C(=N)N2C2OC(CO)C(O)C(O)C2O)NC(=O)C(C(O)C2CNC(=Nc3ncccn3)N2)NC(=O)C(Cc2ccc(OC3OC(CO)C(OC4OC5COC6(OC5C(O)C4O)C4CC5CC(C4)CC6C5)C(O)C3O)cc2)NC1=O (centres unmarked)', 'Staphylococcus sp.', '16 µg/mL');

For every item below, please supply its MIC Staphylococcus haemolyticus (GC 4546).
1. CC=C(C)C(=O)OC1C(CO)OC(OC2C(CO)OC(Oc3ccc(CC4NC(=O)C(C(C)c5ccccc5)NC(=O)CNC(=O)C(CO)NC(=O)C(C(O)C5CNC(=N)N5C5OC(CO)C(O)C(O)C5O)NC(=O)C(C(O)C5CNC(=N)N5)NC4=O)cc3)C(O)C2O)C(O)C1O (centres unmarked) [Example 278b]
2. CCCC(CCC)C(=O)OCC1OC(Oc2ccc(CC3NC(=O)C(C(C)c4ccccc4)NC(=O)CNC(=O)C(CO)NC(=O)C(C(O)C4CNC(=N)N4C4OC(CO)C(O)C(O)C4O)NC(=O)C(C(O)C4CNC(=N)N4)NC3=O)cc2)C(O)C(O)C1OC1OC(CO)C(O)C(O)C1O (centres unmarked) [Example 99b]

Reply text:
["4 µg/mL", "4 µg/mL"]

---

Answer each item with its documented MIC Coagulase Negative Staphylococcus (GC 4547).
system: Staphylococcus sp.; experiment: in vitro antibacterial evaluation, MIC by broth dilution; assay type: cell-based; conditions: broth dilution, 18 hours at 35° C.; strain GC 4547
Numbered stars: 1 amine (or outer) side, 2 acyl side, 3 side chain; on linkers, the order of the positions; unused ones are H or OH. Square brackets hold non-standard residues; d marks the D form. Peptide text beside a SMILES is read from it. * marks the point of attachment. ξ: configuration not given here. X1 = N=C1NCC(C(O)C(N[*:1])C(=O)[*:2])N1C1OC(CO)C(O)C(O)C1O; ξEnduracididine(βξ-OH,4'ξ) = N=C1NCC(C(O)C(N)C(=O)O)N1; X2 = OCC1OC(OC2C(CO)OC(*)C(O)C2O)C(O)C(O)C1O

INSERT INTO assay_data (compound, reading) VALUES
  ('CC(c1ccccc1)C1NC(=O)CNC(=O)C(CO)NC(=O)C(C(O)C2CNC(=N)N2C2OC(CO)C(O)C(O)C2O)NC(=O)C(C(O)C2CNC(=N)N2)NC(=O)C(Cc2ccc(OC3OC(CO)C(OC4OC5COC(C6CCCCC6)OC5C(O)C4O)C(O)C3O)cc2)NC1=O (centres unmarked) [Example 112]', '0.5 to 1 µg/mL');

Here is the next item to consider.
Inquiry: Give the value of MIC Coagulase Negative Staphylococcus (GC 4547) reported for the following: N=C1NCC(C(O)C2NC(=O)C(Cc3ccc(OC4OC(CO)C(OC5OC(CO)C(O)C(O)C5O)C(O)C4O)cc3)NC(=O)C(Cc3ccccc3)NC(=O)CNC(=O)C(CO)NC(=O)C(C(O)C3CNC(=N)N3C3OC(CO)C(O)C(O)C3O)NC2=O)N1 (stereo not drawn) [Example 282] (cyclo(GFY(X2)[ξEnduracididine(βξ-OH,4'ξ)][X1]S); configuration not given here)
Reply text: >128 µg/mL
